Exercise: for every item that follows, state its recorded AUC(0-inf).
assay_summary: Half-lives and pharmacokinetic parameters of polypeptides vs HM-1
condition_info: in vivo
Peptide text beside a SMILES is read from it. * marks the point of attachment. X7 = O=C1C=CC(=O)N1CCOCCOCCOCCOCCOCCOCCCCCCC(=O)*; X14 = O=C1C=CC(=O)N1CCOCCOCCOCCOCCOCCCCCCC(=O)*; X39 = O=C1C=CC(=O)N1c1ccc(CCCCCCCCCCC(=O)*)cc1; X84 = O=C1C=CC(=O)N1c1ccccc1CCCCCCCCCCCCC(=O)*; X20 = O=C1C=CC(=O)N1CCOCCOCCOCCOCCOCCCC(=O)*; X66 = O=C1C=CC(=O)N1c1cccc(CCCCCCCC(=O)*)c1; X61 = O=C1C=CC(=O)N1c1cccc(CCCC(=O)*)c1; X78 = O=C1C=CC(=O)N1c1ccc(CCCC(=O)*)cc1; X62 = O=C1C=CC(=O)N1CCCCCCCCCCCCC(=O)*; X50 = O=C1C=CC(=O)N1c1ccc(CC(=O)*)cc1; X8 = O=C1C=CC(=O)N1CCOCCOCCCC(=O)*
The answer is to be given in ng·h/mL; state only the numeric part.

Name the recorded AUC(0-inf) for C[C@H](NC(=O)CNC(=O)[C@H](CCCNC(=N)N)NC(=O)Cc1ccc(N2C(=O)C=CC2=O)cc1)C(=O)N[C@@H](CC(=O)O)C(=O)N[C@@H](CCCNC(=N)N)C(=O)N[C@@H](C)C(=O)NCC(=O)NCC(=O)NCC(=O)NCC(=O)N[C@@H](CCCNC(=N)N)C(=O)NCC(=O)N[C@@H](CC(=O)O)C(=O)O [X37] (X50-RGADRAGGGGRGD-OH) .
27200

Request: C[C@H](NC(=O)CNC(=O)[C@H](CCCNC(=N)N)NC(=O)CCCCCCCc1cccc(N2C(=O)C=CC2=O)c1)C(=O)N[C@@H](CC(=O)O)C(=O)N[C@@H](CCCNC(=N)N)C(=O)N[C@@H](C)C(=O)NCC(=O)NCC(=O)NCC(=O)NCC(=O)N[C@@H](CCCNC(=N)N)C(=O)NCC(=O)N[C@@H](CC(=O)O)C(=O)O [X31] (X66-RGADRAGGGGRGD-OH)
28600

Request: C[C@H](NC(=O)CNC(=O)[C@H](CCCNC(=N)N)NC(=O)CCCCCCOCCOCCOCCOCCOCCN1C(=O)C=CC1=O)C(=O)N[C@@H](CC(=O)O)C(=O)N[C@@H](CCCNC(=N)N)C(=O)N[C@@H](C)C(=O)NCC(=O)NCC(=O)NCC(=O)NCC(=O)N[C@@H](CCCNC(=N)N)C(=O)NCC(=O)N[C@@H](CC(=O)O)C(=O)O [X82] (X14-RGADRAGGGGRGD-OH)
25700

Request: C[C@H](NC(=O)CNC(=O)[C@H](CCCNC(=N)N)NC(=O)CCCOCCOCCN1C(=O)C=CC1=O)C(=O)N[C@@H](CC(=O)O)C(=O)N[C@@H](CCCNC(=N)N)C(=O)N[C@@H](C)C(=O)NCC(=O)NCC(=O)NCC(=O)NCC(=O)N[C@@H](CCCNC(=N)N)C(=O)NCC(=O)N[C@@H](CC(=O)O)C(=O)O [X58] (X8-RGADRAGGGGRGD-OH)
26200

Request: C[C@H](NC(=O)CNC(=O)[C@H](CCCNC(=N)N)NC(=O)CCCCCCOCCOCCOCCOCCOCCOCCN1C(=O)C=CC1=O)C(=O)N[C@@H](CC(=O)O)C(=O)N[C@@H](CCCNC(=N)N)C(=O)N[C@@H](C)C(=O)NCC(=O)NCC(=O)NCC(=O)NCC(=O)N[C@@H](CCCNC(=N)N)C(=O)NCC(=O)N[C@@H](CC(=O)O)C(=O)O [X89] (X7-RGADRAGGGGRGD-OH)
33100

Request: C[C@H](NC(=O)CNC(=O)[C@H](CCCNC(=N)N)NC(=O)CCCCCCCCCCCCN1C(=O)C=CC1=O)C(=O)N[C@@H](CC(=O)O)C(=O)N[C@@H](CCCNC(=N)N)C(=O)N[C@@H](C)C(=O)NCC(=O)NCC(=O)NCC(=O)NCC(=O)N[C@@H](CCCNC(=N)N)C(=O)NCC(=O)N[C@@H](CC(=O)O)C(=O)O [X12] (X62-RGADRAGGGGRGD-OH)
29200

Request: C[C@H](NC(=O)CNC(=O)[C@H](CCCNC(=N)N)NC(=O)CCCCCCCCCCc1ccc(N2C(=O)C=CC2=O)cc1)C(=O)N[C@@H](CC(=O)O)C(=O)N[C@@H](CCCNC(=N)N)C(=O)N[C@@H](C)C(=O)NCC(=O)NCC(=O)NCC(=O)NCC(=O)N[C@@H](CCCNC(=N)N)C(=O)NCC(=O)N[C@@H](CC(=O)O)C(=O)O [X46] (X39-RGADRAGGGGRGD-OH)
31600

Request: C[C@H](NC(=O)CNC(=O)[C@H](CCCNC(=N)N)NC(=O)CCCc1cccc(N2C(=O)C=CC2=O)c1)C(=O)N[C@@H](CC(=O)O)C(=O)N[C@@H](CCCNC(=N)N)C(=O)N[C@@H](C)C(=O)NCC(=O)NCC(=O)NCC(=O)NCC(=O)N[C@@H](CCCNC(=N)N)C(=O)NCC(=O)N[C@@H](CC(=O)O)C(=O)O [X27] (X61-RGADRAGGGGRGD-OH)
26200

Request: C[C@H](NC(=O)CNC(=O)[C@H](CCCNC(=N)N)NC(=O)CCCc1ccc(N2C(=O)C=CC2=O)cc1)C(=O)N[C@@H](CC(=O)O)C(=O)N[C@@H](CCCNC(=N)N)C(=O)N[C@@H](C)C(=O)NCC(=O)NCC(=O)NCC(=O)NCC(=O)N[C@@H](CCCNC(=N)N)C(=O)NCC(=O)N[C@@H](CC(=O)O)C(=O)O [X39] (X78-RGADRAGGGGRGD-OH)
32800

Request: C[C@H](NC(=O)CNC(=O)[C@H](CCCNC(=N)N)NC(=O)CCCOCCOCCOCCOCCOCCN1C(=O)C=CC1=O)C(=O)N[C@@H](CC(=O)O)C(=O)N[C@@H](CCCNC(=N)N)C(=O)N[C@@H](C)C(=O)NCC(=O)NCC(=O)NCC(=O)NCC(=O)N[C@@H](CCCNC(=N)N)C(=O)NCC(=O)N[C@@H](CC(=O)O)C(=O)O [X79] (X20-RGADRAGGGGRGD-OH)
30500

Request: C[C@H](NC(=O)CNC(=O)[C@H](CCCNC(=N)N)NC(=O)CCCCCCCCCCCCc1ccccc1N1C(=O)C=CC1=O)C(=O)N[C@@H](CC(=O)O)C(=O)N[C@@H](CCCNC(=N)N)C(=O)N[C@@H](C)C(=O)NCC(=O)NCC(=O)NCC(=O)NCC(=O)N[C@@H](CCCNC(=N)N)C(=O)NCC(=O)N[C@@H](CC(=O)O)C(=O)O [X24] (X84-RGADRAGGGGRGD-OH)
29700

====

System: retinal neovascularization (OIR model)
assay_summary: Retinal vessels in OIR mice
Type: in vivo, C57/B16 mice
condition_info: dose 0.05 μM in the vitreous chamber on day 13, retinal vessels evaluated on day 17, vs negative control
Marks after values point to notes of the source that are not given here. Peptide text beside a SMILES is read from it. * marks the point of attachment. X58 = O=C1C=CC(=O)N1c1cccc(CCCCCCCCCCCC(=O)*)c1; X84 = O=C1C=CC(=O)N1c1ccccc1CCCCCCCCCCCCC(=O)*; X72 = O=C1C=CC(=O)N1c1ccccc1CCCCCCCCCCC(=O)*; X52 = O=C1C=CC(=O)N1c1ccccc1CCCCCCCC(=O)*; X71 = O=C1C=CC(=O)N1c1cccc(CCCCCC(=O)*)c1; X49 = O=C1C=CC(=O)N1c1ccccc1CCCCCC(=O)*
assay_endpoint: Inhibition rate (%)

Name the recorded Inhibition rate (%) for C[C@H](NC(=O)CNC(=O)[C@H](CCCNC(=N)N)NC(=O)CCCCCCCCCCc1ccccc1N1C(=O)C=CC1=O)C(=O)N[C@@H](CC(=O)O)C(=O)N[C@@H](CCCNC(=N)N)C(=O)N[C@@H](C)C(=O)NCC(=O)NCC(=O)NCC(=O)NCC(=O)N[C@@H](CCCNC(=N)N)C(=O)NCC(=O)N[C@@H](CC(=O)O)C(=O)O [X22] (X72-RGADRAGGGGRGD-OH) .
61.32%**

Request: C[C@H](NC(=O)CNC(=O)[C@H](CCCNC(=N)N)NC(=O)CCCCCCCCCCCCc1ccccc1N1C(=O)C=CC1=O)C(=O)N[C@@H](CC(=O)O)C(=O)N[C@@H](CCCNC(=N)N)C(=O)N[C@@H](C)C(=O)NCC(=O)NCC(=O)NCC(=O)NCC(=O)N[C@@H](CCCNC(=N)N)C(=O)NCC(=O)N[C@@H](CC(=O)O)C(=O)O [X24] (X84-RGADRAGGGGRGD-OH)
49.53%*

Request: C[C@H](NC(=O)CNC(=O)[C@H](CCCNC(=N)N)NC(=O)CCCCCCCc1ccccc1N1C(=O)C=CC1=O)C(=O)N[C@@H](CC(=O)O)C(=O)N[C@@H](CCCNC(=N)N)C(=O)N[C@@H](C)C(=O)NCC(=O)NCC(=O)NCC(=O)NCC(=O)N[C@@H](CCCNC(=N)N)C(=O)NCC(=O)N[C@@H](CC(=O)O)C(=O)O [X19] (X52-RGADRAGGGGRGD-OH)
60.85%**

Request: C[C@H](NC(=O)CNC(=O)[C@H](CCCNC(=N)N)NC(=O)CCCCCc1ccccc1N1C(=O)C=CC1=O)C(=O)N[C@@H](CC(=O)O)C(=O)N[C@@H](CCCNC(=N)N)C(=O)N[C@@H](C)C(=O)NCC(=O)NCC(=O)NCC(=O)NCC(=O)N[C@@H](CCCNC(=N)N)C(=O)NCC(=O)N[C@@H](CC(=O)O)C(=O)O [X17] (X49-RGADRAGGGGRGD-OH)
60.38%**

Request: C[C@H](NC(=O)CNC(=O)[C@H](CCCNC(=N)N)NC(=O)CCCCCc1cccc(N2C(=O)C=CC2=O)c1)C(=O)N[C@@H](CC(=O)O)C(=O)N[C@@H](CCCNC(=N)N)C(=O)N[C@@H](C)C(=O)NCC(=O)NCC(=O)NCC(=O)NCC(=O)N[C@@H](CCCNC(=N)N)C(=O)NCC(=O)N[C@@H](CC(=O)O)C(=O)O [X29] (X71-RGADRAGGGGRGD-OH)
48.58%*

Request: C[C@H](NC(=O)CNC(=O)[C@H](CCCNC(=N)N)NC(=O)CCCCCCCCCCCc1cccc(N2C(=O)C=CC2=O)c1)C(=O)N[C@@H](CC(=O)O)C(=O)N[C@@H](CCCNC(=N)N)C(=O)N[C@@H](C)C(=O)NCC(=O)NCC(=O)NCC(=O)NCC(=O)N[C@@H](CCCNC(=N)N)C(=O)NCC(=O)N[C@@H](CC(=O)O)C(=O)O [X35] (X58-RGADRAGGGGRGD-OH)
52.36%**
